# protocol-notes: qHTS for Inhibitors of TGF-b: Cytotox Counterscreen
# condition-parameters: HepG2 CAGA-GFP viability, ATP luminescence, 18 h; series mostly up to 46.1 µM
In all, about 410,000 compounds went through this assay and about 3,100 (0.76%) were called active. The call rests on the fitted dose curve; in most records, active means well fitted cell-killing curve with a large enough effect; inactive means no such curve, though single readings can be large or run the other way. The sample holds actives, similar compounds and a random draw of the others, so the mix is not that of the screen.
Outcomes: active, inactive

[[record]]
molecule = "CCc1ccc(-c2nn(-c3ccccc3C)cc2C(=O)N2CCN(C3CCS(=O)(=O)C3)CC2)cc1 (centres undefined)"
class_assignment = "inactive"

[[record]]
molecule = "CC(C)Nc1nc(NCCOc2ccccc2Cl)c2sccc2n1"
class_assignment = "inactive"

[[record]]
molecule = "O=C(CSc1nc(=O)[nH]c2c1CCCC2)Nc1cc(C(F)(F)F)ccc1Cl"
class_assignment = "inactive"

[[record]]
molecule = "COc1cccc(CNc2nc(NCc3ccccc3OC)nc3ccsc23)c1"
class_assignment = "active"


----------
# protocol-notes: qHTS for Inhibitors of TGF-b: Cytotox Counterscreen; further: potency means the concentration at half of the fitted maximal effect
# condition-parameters: HepG2 CAGA-GFP viability, ATP luminescence, 18 h; series mostly up to 46.1 µM
Out of some 410,000 compounds screened, about 3,100 (0.76%) were called active. For the sample, actives were picked, then their nearest neighbours and some compounds at random.
measurement-kind: Potency

[[record]]
compound = "COc1cccc(CNc2nccn(-c3ccc(OC)c(OC)c3)c2=O)c1"
result_value = "inactive"

[[record]]
compound = "NC(=O)C1CCN(C(=O)c2cccc(NC(=O)c3nsc4ccccc34)c2)CC1"
result_value = "inactive"

[[record]]
compound = "COc1ccc(-c2nc(S(=O)(=O)c3ccccc3)c(N3CCCCC3)o2)cc1"
result_value = "inactive"

[[record]]
compound = "Clc1cccc[n+]1CCCC[n+]1ccccc1Cl"
result_value = "inactive"

[[record]]
compound = "OC(c1ccc(Cl)cc1)c1ncc(-c2ccc(Cl)cc2)[nH]1 (stereo unspecified)"
result_value = "11.2 µM (active)"

[[record]]
compound = "OC(c1ccc(F)cc1)c1ncc(-c2cccc(C(F)(F)F)c2)[nH]1 (stereo unspecified)"
result_value = "inactive"


----------
# protocol-notes: qHTS for Inhibitors of TGF-b: Cytotox Counterscreen
# condition-parameters: HepG2 CAGA-GFP viability, ATP luminescence, 18 h; series mostly up to 46.1 µM
About 3,100 (0.76%) of roughly 410,000 compounds were called active. Calls follow the shape of the dose curve; as a rule, active = well fitted cell-killing curve with a large enough effect; inactive = no such curve, though single readings can be large or run the other way. What follows is part of a selection rich in actives, with near analogues and random picks from the rest.
Outcomes: Y (active), N (inactive)

[[record]]
compound = "COc1ccccc1CNS(=O)(=O)c1cc(Br)cc2c1N(C(C)=O)C(C)C2 (stereo unspecified)"
class_assignment = "N"

[[record]]
compound = "Cc1sc2ncn(CC(=O)N3CCN(c4ccc(F)cc4)CC3)c(=O)c2c1S(=O)(=O)N1CCN(c2ncccn2)CC1"
class_assignment = "N"

[[record]]
compound = "CCn1c2ccccc2c2cc(NC(=O)COc3ccc(C)cc3C)ccc21"
class_assignment = "N"

[[record]]
compound = "COc1ccc2oc(-c3ccc(C)c(NC(=O)c4sc5ccccc5c4Cl)c3)nc2c1"
class_assignment = "N"

[[record]]
compound = "COc1cccc(Cn2c(CNS(=O)(=O)c3ccc(Cl)s3)nc3cccnc32)c1"
class_assignment = "N"

[[record]]
compound = "CC1CCCN(Cc2c(O)ccc3c(=O)c(Oc4ccc(C(C)(C)C)cc4)c(C(F)(F)F)oc23)C1 (stereo unspecified)"
class_assignment = "N"

[[record]]
compound = "COc1ccc(-c2nc3cc(C)ccn3c2NC2CCCCC2)cc1SC1CCCCC1"
class_assignment = "N"

[[record]]
compound = "O=C(CSc1nccn1Cc1ccc(F)cc1)NCc1ccccc1"
class_assignment = "N"

[[record]]
compound = "CN(C)c1ccc(/C=c2\\[nH]c(=O)/c(=C/c3ccc(N(C)C)cc3)[nH]c2=O)cc1"
class_assignment = "N"

[[record]]
compound = "CC(C)=CCCC1(C)C=Cc2c(ccc3c2[nH]c2cc(O)c(C)cc23)O1 (stereo unspecified)"
class_assignment = "Y"

[[record]]
compound = "COc1ccc(-c2onc(C)c2C)cc1S(=O)(=O)NCCc1ccccc1"
class_assignment = "N"

[[record]]
compound = "CS(=O)c1ccc(/C=C2\\C=Cc3ccccc32)cc1 (stereo unspecified)"
class_assignment = "N"

[[record]]
compound = "Cc1nnc(N2CCCC(C(=O)NCCN(C)C)C2)c2nn(-c3ccccc3)c(C)c12 (stereo unspecified)"
class_assignment = "N"

[[record]]
compound = "CCc1ccc(OCC(O)CN2CCN(CCO)CC2)cc1 (stereo unspecified)"
class_assignment = "N"

[[record]]
compound = "CCCCNC(=O)C1CCCN(c2nnc(C)c3c(C)n(-c4ccc(Cl)cc4)nc23)C1 (stereo unspecified)"
class_assignment = "N"

[[record]]
compound = "Cn1c(SCC(=O)Nc2cccc(NC(=O)c3cccs3)c2)nnc1-c1ccncc1"
class_assignment = "N"

[[record]]
compound = "Cc1ccc(-c2cc(C(F)(F)F)c(C#N)c(SCC(=O)Nc3ccccc3)n2)cc1"
class_assignment = "N"

[[record]]
compound = "O=S1(=O)CCC(NC(=S)SCc2ccccc2Br)C1 (stereo unspecified)"
class_assignment = "N"

[[record]]
compound = "O=C(NCCCN1CCN(c2cccc(Cl)c2)CC1)c1nnc(Cc2ccc(F)cc2Cl)o1"
class_assignment = "Y"

[[record]]
compound = "CCCSC(=S)NC1CCS(=O)(=O)C1 (stereo unspecified)"
class_assignment = "Y"

[[record]]
compound = "COc1ccc(-c2nc3cnccn3c2NC2CCCCC2)cc1-c1cccc(Cl)c1"
class_assignment = "Y"

